Provenance of the data: patent US20150105252A1

Morningglory plant response rating (0 to 100 scale): recorded values
Test system: morningglory
Assay Protocol: Test A preemergence
Type: in vivo, Ipomoea spp.
Condition Parameters: preemergence, 125 g ai/ha, visual injury approx. 10 days after treatment
I only need the number, thanks.

// known answers, use as guide
CCc1cc(C(=O)NC(C)C)nn1Cc1ccnc(OCC(F)(F)F)c1 [Compound 149]
10
CCCc1cc(C(=O)NOC(C)C)nn1Cc1cc(C(F)(F)F)nn1C [Compound 203]
10
CCc1cc(C(=O)NC2CC2)nn1Cc1ccnc(Br)c1 [Compound 220]
20
CCCNC(=O)c1cc(CCF)n(Cc2ccnc(C(F)(F)F)c2)n1 [Compound 177]
100
CCONC(=O)c1cc(C)n(Cc2ccnc(C(F)(F)F)c2)n1 [Compound 231]
0

We next turn to a different compound, shown below.
// query Under morningglory: Morningglory plant response rating (0 to 100 scale) value of CCc1cc(C(=O)NCC#N)nn1Cc1ccnc(C(F)(F)F)c1 [Compound 147] ?
// result 20

---

Test system: foxtail, giant
Assay Protocol: Test A preemergence
Format: in vivo, Setaria faberii
Condition Parameters: preemergence, 500 g ai/ha, visual injury after approx. 10 days, 0 to 100 scale (0 no effect, 100 complete control)
Foxtail, Giant plant response rating: recorded values
I only need the number, thanks.

// query Item CCCc1cc(-c2ccc(C(F)(F)F)cc2)nn1Cc1ccnc(C(F)(F)F)c1 has what recorded Foxtail, Giant plant response rating?
// result 100

// query Item CCc1cc(C(=O)NCC(F)(F)F)nn1Cc1ccnc(SC(F)(F)F)c1 has what recorded Foxtail, Giant plant response rating?
// result 100

// query Item CCc1cc(C(=O)NCC(F)(F)F)nn1Cc1cc(C(F)(F)F)no1 has what recorded Foxtail, Giant plant response rating?
// result 100

// query Item CCONC(=O)c1cc(CC)n(Cc2cc(C(F)(F)F)nn2C(C)C)n1 has what recorded Foxtail, Giant plant response rating?
// result 30

// query Item CCc1cc(C(=O)NC2CC2)nn1Cc1cc(C(F)(F)F)nn1C(C)C has what recorded Foxtail, Giant plant response rating?
// result 0

---

Crabgrass, Large plant response rating: recorded values
Test system: crabgrass, large
Assay Protocol: Test A postemergence
Assay type: in vivo, Digitaria sanguinalis
Condition Parameters: Postemergence, 1000 g ai/ha; visual rating after approx. 10 days, 0 to 100 scale (0 no effect, 100 complete control)
Text: […]
I only need the number, thanks.

// query Item CCc1cc(C(=O)NCC(F)(F)F)nn1Cc1cccc(OC(F)(F)F)c1 [Compound 20] has what recorded Crabgrass, Large plant response rating?
// result 80

// query Item Cc1cc(C(=O)NC2CC2)nn1Cc1cccc(C(F)(F)F)c1 [Compound 2] has what recorded Crabgrass, Large plant response rating?
// result 50

// query Item CCCNC(=O)c1cc(CC)n(Cc2cccc(C(F)(F)F)c2)n1 [Compound 16] has what recorded Crabgrass, Large plant response rating?
// result 80

---

Test system: crabgrass, large
Assay Protocol: Test A postemergence
Assay type: in vivo, Digitaria sanguinalis
Condition Parameters: postemergence, 125 g ai/ha, about 10 days, visual rating on 0 to 100 scale (0 no effect, 100 complete control)
Response field label: string, one of Satisfied (Crabgrass, Large plant response rating strictly below 10) or Not satisfied.

Solved cases below.
CCc1cc(C(=O)NC2CC2)nn1Cc1cccc(C(F)(F)F)n1 [Compound 91]
Satisfied
CCNC(=O)c1cc(CCF)n(Cc2ccnc(C(F)(F)F)c2)n1 [Compound 178]
Not satisfied
CCc1cc(C(=O)NCC(F)(F)F)nn1Cc1nc(C(F)(F)F)nn1C [Compound 107]
Not satisfied
CCc1cc(C(=O)NCC(F)(F)C(F)(F)F)nn1Cc1ccnc(C(F)(F)F)c1 [Compound 102]
Not satisfied
COCc1cc(C(=O)NC(C)C)nn1Cc1ccnc(C(F)(F)F)c1 [Compound 166]
Not satisfied

// query Hi there! Is Crabgrass, Large plant response rating for O=C(NC1CC1)c1cc(CCF)n(Cc2ccnc(C(F)(F)F)c2)n1 [Compound 176] below 10, do you know?
// result Not satisfied

---

Tested on: morningglory
Assay Protocol: Test A postemergence
Type: in vivo, Ipomoea spp.
Condition Parameters: postemergence, 125 g ai/ha, about 10 days, visual rating on 0 to 100 scale (0 no effect, 100 complete control)
Readout: Morningglory plant response rating
I only need the number, thanks.

// known answers, use as guide
CCc1cc(C(=O)NCC(F)(F)F)nn1Cc1nc(C(F)(F)F)nn1C [Compound 107]
90
Cc1cc(C(=O)NCC(F)(F)F)nn1Cc1cc(F)cc(C(F)(F)F)c1 [Compound 13]
50
CCONC(=O)c1cc(CC)n(Cc2cccc(OC(F)(F)F)c2)n1 [Compound 72]
80
CCc1cc(C(=O)NC2CC2)nn1Cc1nnc(C(F)(F)F)o1 [Compound 172]
30
CCNC(=O)c1cc(CCF)n(Cc2ccnc(C(F)(F)F)c2)n1 [Compound 178]
70

// query Item CCCc1cc(-c2ccc(C(F)(F)F)cc2)nn1Cc1ccnc(C(F)(F)F)c1 [Compound 113] has what recorded Morningglory plant response rating?
// result 40

// query Item CCCCNC(=O)c1cc(CC)n(Cc2ccnc(C(F)(F)F)c2)n1 [Compound 141] has what recorded Morningglory plant response rating?
// result 90

---

Morningglory plant response rating: recorded values
Tested on: morningglory
Assay Protocol: Test A preemergence
Type: in vivo, Ipomoea spp.
Condition Parameters: Preemergence, 1000 g ai/ha; 0 to 100 scale, 0 no effect, 100 complete control
From the text: […]
I only need the number, thanks.

// known answers, use as guide
CCc1cc(C(=O)NCC(C)C)nn1Cc1cccc(OC(F)(F)F)c1
20
C#CCNC(=O)c1cc(CC)n(Cc2cccc(C(F)(F)F)c2)n1
20

We next turn to a different compound, shown below.
// query Item C=CCNC(=O)c1cc(CC)n(Cc2cccc(OC(F)(F)F)c2)n1 has what recorded Morningglory plant response rating?
// result 20

---

Tested on: ryegrass, Italian
Assay Protocol: Test C postemergence
Format: in vivo, Lolium multiflorum
Condition Parameters: postemergence, 250 g ai/ha; scale 0 to 100 (0 no effect, 100 complete control)
Response field label: string, one of YES (Plant response rating, Ryegrass, Italian strictly below 20) or NO.

Solved cases below.
CCc1cc(C(=O)NOC(C)C)nn1Cc1ccnc(OC(F)F)c1
YES
CCc1cc(C(=O)NCC(F)(F)F)nn1Cc1ccnc(SC(F)(F)F)c1
YES
CCONC(=O)c1cc(CC)n(Cc2cccc(OC(F)(F)F)c2)n1
NO
CCCNC(=O)c1cc(OCC)n(Cc2ccnc(OC(F)F)c2)n1
NO
CCc1cc(C(=O)NCC(F)(F)F)nn1Cc1cccc(OC(F)(F)F)c1
NO

// query Hi there! Is Plant response rating, Ryegrass, Italian for CCCNC(=O)c1cc(CCF)n(Cc2ccnc(C(F)(F)F)c2)n1 below 20, do you know?
// result YES

// query Hi there! Is Plant response rating, Ryegrass, Italian for CCCNC(=O)c1cc(OCC)n(Cc2ccnc(C(F)(F)F)c2)n1 below 20, do you know?
// result NO

// query Hi there! Is Plant response rating, Ryegrass, Italian for CCCc1cc(C(=O)NC2CC2)nn1Cc1ccnc(OC(F)F)c1 below 20, do you know?
// result YES

---

Test system: velvetleaf
Assay Protocol: Test A preemergence
Assay type: in vivo, Abutilon theophrasti
Condition Parameters: Preemergence, 500 g ai/ha; 0 to 100 scale, 0 no effect, 100 complete control
Readout: Velvetleaf plant response rating
I only need the number, thanks.

// known answers, use as guide
CCCCNC(=O)c1cc(C)n(Oc2ccnc(C(F)(F)F)c2)n1
0
Cc1cc(C(=O)NCC(F)(F)F)nn1Cc1cccc(C(F)(F)F)c1
10

// query Under velvetleaf: Velvetleaf plant response rating value of CCCNC(=O)c1cc(CC)n(Oc2ccnc(C(F)(F)F)c2)n1 ?
// result 20

---

Velvetleaf plant response rating: recorded values
Tested on: velvetleaf
Assay Protocol: Test C preemergence
Assay type: in vivo, Abutilon theophrasti
Condition Parameters: preemergence, 62 g ai/ha; scale 0 to 100 (0 no effect, 100 complete control), 13 to 15 days
I only need the number, thanks.

// known answers, use as guide
CCNC(=O)c1cc(CCF)n(Cc2ccnc(C(F)(F)F)c2)n1
55
O=C(NC1CC1)c1cc(CCF)n(Cc2ccnc(C(F)(F)F)c2)n1
75
CCCc1cc(C(=O)NC(C)C)nn1Cc1cc(C(F)(F)F)nn1C
100
CCc1cc(C(=O)NCC(F)(F)F)nn1Cc1cc(C(F)(F)F)nn1C
100
CCCNC(=O)c1cc(OCC)n(Cc2ccnc(C(F)(F)F)c2)n1
100

// query Item CCCNC(=O)c1cc(CC)n(Cc2nc(C(F)(F)F)nn2C)n1 has what recorded Velvetleaf plant response rating?
// result 80
